experimental-protocol: Tissue distribution of TET after a single i.t. administration in normal and LPS-treated mice
conditions-used: BALB/c, mouse, intestine, inhaled or intranasal, 15 mg/kg, AUC(0-∞), LPS-treated mice; 15 mg/kg i.t.
measurement-kind: AUC(0-inf) (µg·h/mL)
# number only, unit µg·h/mL dropped from output

GET /value?item= COc1ccc2cc1Oc1ccc(cc1)C[C@H]1c3cc(c(OC)cc3CCN1C)Oc1c(OC)c(OC)cc3c1[C@H](C2)N(C)CC3 &field=AUC(0-inf) returns 2590

* * *

experimental-protocol: Tissue distribution of TET after a single i.t. administration in normal and LPS-treated mice
conditions-used: BALB/c, mouse, brain, inhaled or intranasal, 15 mg/kg, Tmax, LPS-treated mice; 15 mg/kg i.t.
measurement-kind: Tmax (h)
# number only, unit h dropped from output

GET /value?item= COc1ccc2cc1Oc1ccc(cc1)C[C@H]1c3cc(c(OC)cc3CCN1C)Oc1c(OC)c(OC)cc3c1[C@H](C2)N(C)CC3 [TET, Tetrandrine] &field=Tmax returns 5.33

* * *

experimental-protocol: Tissue distribution of TET after a single i.t. administration in normal and LPS-treated mice
conditions-used: BALB/c, mouse, lung, inhaled or intranasal, 15 mg/kg, Tmax, LPS-treated mice; 15 mg/kg i.t.
measurement-kind: Tmax

GET /value?item= COc1ccc2cc1Oc1ccc(cc1)C[C@H]1c3cc(c(OC)cc3CCN1C)Oc1c(OC)c(OC)cc3c1[C@H](C2)N(C)CC3 [TET, Tetrandrine] &field=Tmax returns ≥ 144 h

* * *

experimental-protocol: Tissue distribution of TET after a single i.t. administration in normal and LPS-treated mice
conditions-used: BALB/c, mouse, spleen, inhaled or intranasal, 15 mg/kg, Tmax, LPS-treated mice; 15 mg/kg i.t.
measurement-kind: Tmax

GET /value?item= COc1ccc2cc1Oc1ccc(cc1)C[C@H]1c3cc(c(OC)cc3CCN1C)Oc1c(OC)c(OC)cc3c1[C@H](C2)N(C)CC3 &field=Tmax returns 17.3 h

* * *

experimental-protocol: Tissue distribution of TET after a single i.t. administration in normal and LPS-treated mice
conditions-used: BALB/c, mouse, intestine, inhaled or intranasal, 15 mg/kg, Cmax, normal mice; 15 mg/kg i.t.
measurement-kind: Cmax (ng/mL)
# number only, unit ng/mL dropped from output

GET /value?item= COc1ccc2cc1Oc1ccc(cc1)C[C@H]1c3cc(c(OC)cc3CCN1C)Oc1c(OC)c(OC)cc3c1[C@H](C2)N(C)CC3 [TET, Tetrandrine] &field=Cmax returns 46700

* * *

experimental-protocol: Tissue distribution of TET after a single i.t. administration in normal and LPS-treated mice
conditions-used: BALB/c, mouse, blood, inhaled or intranasal, 15 mg/kg, AUC(0-∞), normal mice; 15 mg/kg i.t.
measurement-kind: AUC(0-inf) (µg·h/mL)
# number only, unit µg·h/mL dropped from output

GET /value?item= COc1ccc2cc1Oc1ccc(cc1)C[C@H]1c3cc(c(OC)cc3CCN1C)Oc1c(OC)c(OC)cc3c1[C@H](C2)N(C)CC3 [TET, Tetrandrine] &field=AUC(0-inf) returns 249

* * *

experimental-protocol: Tissue distribution of TET after a single i.t. administration in normal and LPS-treated mice
conditions-used: BALB/c, mouse, kidney, inhaled or intranasal, 15 mg/kg, MRT, LPS-treated mice; 15 mg/kg i.t.
measurement-kind: MRT (h)
# number only, unit h dropped from output

GET /value?item= COc1ccc2cc1Oc1ccc(cc1)C[C@H]1c3cc(c(OC)cc3CCN1C)Oc1c(OC)c(OC)cc3c1[C@H](C2)N(C)CC3 [TET, Tetrandrine] &field=MRT returns 101

* * *

experimental-protocol: Tissue distribution of TET after a single i.t. administration in normal and LPS-treated mice
conditions-used: BALB/c, mouse, intestine / blood, other: intratracheal (i.t.), 15 mg/kg, Kp (AUC in tissue divided by AUC in blood), normal mice; 15 mg/kg i.t.; intestine
measurement-kind: Kp
The answer should be written as a number, with no unit following it.

GET /value?item= COc1ccc2cc1Oc1ccc(cc1)C[C@H]1c3cc(c(OC)cc3CCN1C)Oc1c(OC)c(OC)cc3c1[C@H](C2)N(C)CC3 [TET, Tetrandrine] &field=Kp returns 8.3

* * *

experimental-protocol: Tissue distribution of TET after a single i.t. administration in normal and LPS-treated mice
conditions-used: BALB/c, mouse, liver, inhaled or intranasal, 15 mg/kg, t1/2, normal mice; 15 mg/kg i.t.
Procedure: The different tissue distribution characteristics of TET in normal and pneumonia model mice via i.t. delivery were investigated. Thirty BALB/c mice were randomly divided into ten groups (n = 3 for each group). […] Pharmacokinetic parameters including t1/2, AUC(0-t), AUC(0-∞), and MRT were calculated using WinNonlin 7.0 (Pharsight, CA) by the non-compartmental model. […] Blood clearance (CL) was calculated as the i.v. dose divided by AUCinf. […]
measurement-kind: half-life (h)
# number only, unit h dropped from output

GET /value?item= COc1ccc2cc1Oc1ccc(cc1)C[C@H]1c3cc(c(OC)cc3CCN1C)Oc1c(OC)c(OC)cc3c1[C@H](C2)N(C)CC3 [TET, Tetrandrine] &field=half-life returns 47.5

* * *

experimental-protocol: Tissue distribution of TET after a single i.t. administration in normal and LPS-treated mice
conditions-used: BALB/c, mouse, muscle / blood, other: intratracheal (i.t.), 15 mg/kg, Kp (AUC in tissue divided by AUC in blood), normal mice; 15 mg/kg i.t.; muscle
measurement-kind: Kp
The answer should be written as a number, with no unit following it.

GET /value?item= COc1ccc2cc1Oc1ccc(cc1)C[C@H]1c3cc(c(OC)cc3CCN1C)Oc1c(OC)c(OC)cc3c1[C@H](C2)N(C)CC3 &field=Kp returns 2

* * *

experimental-protocol: Tissue distribution of TET after a single i.t. administration in normal and LPS-treated mice
conditions-used: BALB/c, mouse, brain, inhaled or intranasal, 15 mg/kg, Tmax, normal mice; 15 mg/kg i.t.
Protocol: The different tissue distribution characteristics of TET in normal and pneumonia model mice via i.t. delivery were investigated. Thirty BALB/c mice were randomly divided into ten groups (n = 3 for each group). […] Pharmacokinetic parameters including t1/2, AUC(0-t), AUC(0-∞), and MRT were calculated using WinNonlin 7.0 (Pharsight, CA) by the non-compartmental model. […] Blood clearance (CL) was calculated as the i.v. dose divided by AUCinf. […]
measurement-kind: Tmax
Form entry: enter the amount, then its unit.

GET /value?item= COc1ccc2cc1Oc1ccc(cc1)C[C@H]1c3cc(c(OC)cc3CCN1C)Oc1c(OC)c(OC)cc3c1[C@H](C2)N(C)CC3 &field=Tmax returns 2 h

* * *

experimental-protocol: In vitro experiments for fup, fu,mic and Rb/p used in the well-stirred model
Format: in vitro ADME
conditions-used: obtained from in vitro experiments
measurement-kind: fraction unbound
The answer should be written as a number, with no unit following it.

GET /value?item= COc1ccc2cc1Oc1ccc(cc1)C[C@H]1c3cc(c(OC)cc3CCN1C)Oc1c(OC)c(OC)cc3c1[C@H](C2)N(C)CC3 [TET, Tetrandrine] &field=fraction unbound returns 0.18

* * *

experimental-protocol: Tissue distribution of TET after a single i.t. administration in normal and LPS-treated mice
conditions-used: BALB/c, mouse, adipose, inhaled or intranasal, 15 mg/kg, AUC(0-∞), LPS-treated mice; 15 mg/kg i.t.
Method: The different tissue distribution characteristics of TET in normal and pneumonia model mice via i.t. delivery were investigated. Thirty BALB/c mice were randomly divided into ten groups (n = 3 for each group). […] Pharmacokinetic parameters including t1/2, AUC(0-t), AUC(0-∞), and MRT were calculated using WinNonlin 7.0 (Pharsight, CA) by the non-compartmental model. […] Blood clearance (CL) was calculated as the i.v. dose divided by AUCinf. […]
measurement-kind: AUC(0-inf) (µg·h/mL)
# number only, unit µg·h/mL dropped from output

GET /value?item= COc1ccc2cc1Oc1ccc(cc1)C[C@H]1c3cc(c(OC)cc3CCN1C)Oc1c(OC)c(OC)cc3c1[C@H](C2)N(C)CC3 [TET, Tetrandrine] &field=AUC(0-inf) returns 816

* * *

experimental-protocol: Tissue distribution of TET after a single i.t. administration in normal and LPS-treated mice
conditions-used: BALB/c, mouse, kidney, inhaled or intranasal, 15 mg/kg, Tmax, LPS-treated mice; 15 mg/kg i.t.
measurement-kind: Tmax (h)
# number only, unit h dropped from output

GET /value?item= COc1ccc2cc1Oc1ccc(cc1)C[C@H]1c3cc(c(OC)cc3CCN1C)Oc1c(OC)c(OC)cc3c1[C@H](C2)N(C)CC3 &field=Tmax returns 5.33

* * *

experimental-protocol: Tissue distribution of TET after a single i.t. administration in normal and LPS-treated mice
conditions-used: BALB/c, mouse, lung, other: intratracheal (i.t.), 15 mg/kg, Kp (AUC in tissue divided by AUC in blood), normal mice; 15 mg/kg i.t.; lung
measurement-kind: Kp
The answer should be written as a number, with no unit following it.

GET /value?item= COc1ccc2cc1Oc1ccc(cc1)C[C@H]1c3cc(c(OC)cc3CCN1C)Oc1c(OC)c(OC)cc3c1[C@H](C2)N(C)CC3 [TET, Tetrandrine] &field=Kp returns 24.7
